meta.source: PubChem BioAssay (NCI)

tested on: ACHN renal; experiment: NCI-60 one-dose screen, 48 h; details: 10 µM unless noted
Compounds without any hit were thinned out: in the full panel of roughly 83,000, 20% have a hit. The source made the active and inactive calls. Rule for the calls: active = growth percent below 10; inactive = the rest.
Answer with one of the outcomes given here: 1.0 = active, 0.0 = inactive

State the result this test recorded for O=c1[nH]c2ccccc2cc1COc1ccc(Nc2nccc(-c3ccc(Cl)cc3)n2)cc1 .
0.0

State the result this test recorded for CCCCNC(=S)Nc1ccc(OCc2nc3ccc(Cl)cc3[nH]2)cc1 .
1.0

State the result this test recorded for COc1cc(C=O)ccc1OC(=O)c1cc(-c2ccc(C)cc2)n(-c2ccc(S(C)(=O)=O)cc2)n1 .
0.0

State the result this test recorded for ClC(Cn1ncc2c(Nc3cccc(Br)c3)nc(SCCN3CCOCC3)nc21)c1ccc(Br)cc1 (stereo not given) .
1.0

State the result this test recorded for NC(=O)c1ccc(-c2ccc3ncnc(N4CCc5cc(F)c(Cl)cc54)c3c2)cn1 .
0.0

====

tested on: HOP-62 NSCLC; assay: NCI-60 one-dose screen, 48 h (100 = growth as untreated, 0 = no growth, -100 = all killed); details: 10 µM unless noted
Compounds without any hit were thinned out: in the full panel of roughly 83,000, 20% have a hit.
Would you mind sorting the entries by growth according to these classes? bottom bin = under 30%, middle bin = from 30% up to 70%, top bin = 70% and over

Please let me know in which category the item O=C(CSc1nnc(-c2ccc(-c3nc4ccc(Cl)cc4[nH]3)cc2)o1)Nc1ccccc1 belongs.
bottom bin

Please let me know in which category the item N#C/C(=C/c1ccc([N+](=O)[O-])cc1)c1nnc(NC(=O)c2ccc(-n3c(=O)[nH]c4ccccc4c3=O)cc2)s1 belongs.
top bin

Please let me know in which category the item COc1cc(/C=N/NC(=O)c2ccc(OCc3nc4ccc(C)cc4[nH]3)cc2)cc(OC)c1OC belongs.
middle bin

Please let me know in which category the item c1ccc(CSc2nnc(-c3ccc4nc(-c5ccccc5)[nH]c4c3)o2)cc1 belongs.
bottom bin

Please let me know in which category the item CCCCCCCCCCCCCCCCCC(=O)Nc1ccc(OC)cc1 belongs.
top bin

Please let me know in which category the item C/C(=N\Nc1ccc(S(N)(=O)=O)cc1)c1cnn(-c2cc(=O)[nH]c3ccc(Br)cc23)c1C belongs.
middle bin

Please let me know in which category the item COc1ccc(N=Nc2c(N)nn3c(N)c(C#N)c(-c4ccc(C)cc4)nc23)cc1 belongs.
middle bin

Please let me know in which category the item O=C1NC(=NC23CC4CC(CC(C4)C2)C3)N/C1=C\c1ccc2ncccc2c1 belongs.
bottom bin

Please let me know in which category the item COc1ccc(-c2cc(C)nc3[nH]c(=O)sc23)cc1 belongs.
middle bin

Please let me know in which category the item COC(=O)c1c(C(=O)OC)c2ccc3c4ccccc4ccc3n2c1C(=O)C(C)Br (stereo not given) belongs.
middle bin

Please let me know in which category the item COc1ccc2[nH]c(O)c(N=Nc3nc(-c4ccc(C#N)cc4)cs3)c2c1 belongs.
top bin

Please let me know in which category the item C=CC(=O)N1CCN(c2ccc3nc4c(nc3c2C(F)(F)F)C(=O)c2ncccc2C4=O)CC1 belongs.
middle bin

Please let me know in which category the item COc1cc(CNC(=O)C[C@H](C)CCC=C(C)C)ccc1OCc1cn(-c2cccc(C(F)(F)F)c2)nn1 belongs.
top bin

Please let me know in which category the item O=c1[nH]c2ccccc2cc1CSc1ccccc1Nc1nccc(-c2ccc3c(c2)OCO3)n1 belongs.
middle bin

Please let me know in which category the item N#Cc1ccc(C(=O)CSc2nc3c(c(Nc4ccc(S(N)(=O)=O)cc4)n2)CCC3)cc1 belongs.
bottom bin

Please let me know in which category the item Nc1nc2cc(-c3ccc4ncnc(NCc5ccccc5)c4c3)ccc2o1 belongs.
bottom bin

Please let me know in which category the item COc1ccc(NC(=O)Cn2c(/C=C/c3ccc([N+](=O)[O-])cc3)nc3ccccc3c2=O)cc1 belongs.
middle bin

Please let me know in which category the item O=C(CSc1nc2ccccc2c(=O)[nH]1)Nc1ccccc1C(=O)O belongs.
top bin

====

test system: NCI-H522 lung; experiment: NCI-60 one-dose screen, 48 h (100 = growth as untreated, 0 = no growth, -100 = all killed); details: 10 µM unless noted
Compounds without any hit were thinned out: in the full panel of roughly 83,000, 20% have a hit.
quantity.measured: growth (%)
The reply should be a number in %, with the unit left off.

Name the reported growth value associated with the molecule Cc1ccc(NC(=O)N/N=C/c2c[nH]c3ccccc23)c(C)c1
-36.8

Name the reported growth value associated with the molecule COc1cc(/C=C/C(=O)c2cnn(-c3cc(=O)[nH]c4ccccc34)c2C)cc(OC)c1OC
-18.1

Name the reported growth value associated with the molecule O=C(Nc1ccc(-c2ccc3c(c2)NC(=O)/C3=C\c2ccc[nH]2)cc1)Nc1ccc(Cl)c(Cl)c1
63

Name the reported growth value associated with the molecule O=C(Cc1c(-c2cccc([N+](=O)[O-])c2)n(-c2ncnc3c2c(-c2ccccc2)c(-c2ccccc2)n3Cc2ccccc2)[nH]c1=O)c1ccc(Cl)c(Cl)c1
7.22

Name the reported growth value associated with the molecule Cc1ccc(C2CC(c3ccc(NC(=S)Nc4ccccc4)cc3)=NN2c2ccc(S(N)(=O)=O)cc2)cc1 (stereo not drawn)
15.8

Name the reported growth value associated with the molecule Cn1cc(-c2cc(N)n3nc(-c4c[nH]c5ccc(F)cc45)cc3n2)c2cc(Br)cnc21
27.6

Name the reported growth value associated with the molecule Cc1ccc(O)cc1Nc1nc(SCCN2CCOCC2)nc2c1cnn2CC(Cl)c1ccc(Br)cc1 (stereo not drawn)
15.8

Name the reported growth value associated with the molecule Cn1cc(-c2cc(N)n3nc(-c4c[nH]c5ccccc45)cc3n2)c2cc(F)ccc21
-61.8

====

Assign growth to each entry below.
system: A498 renal; test: NCI-60 one-dose screen, 48 h (100 = growth as untreated, 0 = no growth, -100 = all killed); settings: 10 µM unless noted
This is part of a sample that, as a whole, favours compounds with a hit. Of some 83,000 tested, about 20% had one in any assay.
The reply should be a number in %, with the unit left off.

Name the reported growth value associated with the compound O=C(CSc1nc2sc3c(c2c(=O)n1-c1ccc(Cl)cc1)CCCC3)N/N=C/C=C/c1ccccc1
-40.8

Name the reported growth value associated with the compound CC1=C(C)C(=O)C(NCCN2CCOCC2)=C(Br)C1=O
124

Name the reported growth value associated with the compound O=C1Nc2cc(-c3ccc(NS(=O)(=O)c4ccc([N+](=O)[O-])cc4)cc3)ccc2/C1=C/c1ccc[nH]1
-33.6

Name the reported growth value associated with the compound Nc1cc(-c2c[nH]c3ccc(Cl)cc23)nc2cc(-c3c[nH]c4ccccc34)nn12
-14

Name the reported growth value associated with the compound COc1ccc(-c2nc3ccccc3n2CC(=O)N=Nc2c(O)[nH]c3ccc(Br)cc23)cc1
139

Name the reported growth value associated with the compound CN(C)C(=O)c1cc(-c2ccc3ncnc(N4CCc5cc(F)c(Cl)cc54)c3c2)cnc1N
-84.2

Name the reported growth value associated with the compound CCCCN1C(=O)/C(=C\C(=O)c2cc3ccccc3oc2=O)c2ccccc21
161

Name the reported growth value associated with the compound Cc1ccc(N=Nc2c(N)nn3c(-c4cc5cc(Br)ccc5oc4=O)ccnc23)cc1
51.9

Name the reported growth value associated with the compound O=C1/C(=C/c2cccc3c2OCO3)Cc2c(F)cc(Br)cc21
152

====

system: DU-145 prostate; test: NCI-60 one-dose screen, 48 h (100 = growth as untreated, 0 = no growth, -100 = all killed); conditions: 10 µM unless noted
The panel holds about 83,000 compounds, 20% with a hit somewhere; the sample as a whole holds those more often. Active and inactive are the calls of the source. How the source made its calls: active means growth percent below 10; inactive means the rest.
quantity.measured: growth

Name the reported growth value associated with the compound O=C1Nc2ccccc2/C1=C\c1ccc(OCC(=O)c2ccc(Br)cc2)cc1
85.6% (inactive)

Name the reported growth value associated with the compound Cc1ccc(C(=O)Nc2cc(-n3ccnc3C)cc(C(F)(F)F)c2)cc1C#Cc1cnc2cccnn12
18.6% (inactive)

Name the reported growth value associated with the compound Nc1ccc(-c2ccc3ncnc(N4CCc5cc(F)c(Cl)cc54)c3c2)cn1
5.3% (active)

Name the reported growth value associated with the compound Clc1ccc(-c2nc3ccc(-c4nnc(SCc5ccccc5)o4)cc3[nH]2)cc1
54.9% (inactive)

Name the reported growth value associated with the compound Clc1ccccc1Nc1nnc(-c2c[nH]c3ccccc23)o1
21.5% (inactive)

Name the reported growth value associated with the compound CN(C)c1ccc(/C=C/c2n(Cc3ccc4ccccc4c3)c3ccccc3[n+]2Cc2ccc3ccccc3c2)cc1
-43.3% (active)

Name the reported growth value associated with the compound Nc1cc(-c2c[nH]c3ccc(F)cc23)nc2cc(-c3c[nH]c4ccccc34)nn12
26.9% (inactive)

Name the reported growth value associated with the compound NS(=O)(=O)c1ccc(Nc2nc(SCC(=O)c3ccc(F)cc3)nc3ccccc23)cc1
52.9% (inactive)

Name the reported growth value associated with the compound Cc1cc(=O)oc2cc(OCC(O)CNN3C(=O)c4cccc5c(N6CCN(C)CC6)ccc(c45)C3=O)ccc12 (centres undefined)
96.6% (inactive)
